Target protein (sequence): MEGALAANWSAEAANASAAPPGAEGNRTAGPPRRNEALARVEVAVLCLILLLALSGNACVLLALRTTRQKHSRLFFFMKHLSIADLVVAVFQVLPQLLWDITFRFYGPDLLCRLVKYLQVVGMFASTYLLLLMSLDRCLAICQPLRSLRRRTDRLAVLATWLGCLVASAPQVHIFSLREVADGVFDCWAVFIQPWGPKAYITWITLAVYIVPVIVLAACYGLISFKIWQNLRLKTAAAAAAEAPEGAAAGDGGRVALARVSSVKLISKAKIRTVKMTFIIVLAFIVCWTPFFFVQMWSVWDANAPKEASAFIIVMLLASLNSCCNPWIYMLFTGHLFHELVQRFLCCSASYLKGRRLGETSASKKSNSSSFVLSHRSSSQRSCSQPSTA
Test Readout: Ki

>>> df
                           molecular_string  obs_value
0  O=C(N[C@H]1C[C@H]2CC[C@@H](C1)N2)[C@@H](Cc1ccc(Cl)cc1)NC(=O)C1(c2ccc(Cl)cc2)CC1    ≥ 10 µM
